Entry source: the supplement of paper PMC11246515

# EXPERIMENT: total protein half-life in vivo (active degradation + dilution); higher = more stable protein
# REPORTED CONDITIONS: wild type E. coli NCM3722; growth: N-lim chemostat; doubling time 12 h
QUANTITY: total protein half-life in vivo (h)
Lab book: enter the figure in h, no units written.

Please supply the value of reported total protein half-life in vivo for the item `MRTVKVFEEAWPLHTPFVIARGSRSEARVVVVELEEEGIKGTGECTPYPRYGESDASVMAQIMSVVPQLEKGLTREELQKILPAGAARNALDCALWDLAARRQQQSLADLIGITLPETVITAQTVVIGTPDQMANSASTLWQAGAKLLKVKLDNHLISERMVAIRTAVPDATLIVDANESWRAEGLAARCQLLADLGVAMLEQPLPAQDDAALENFIHPLPICADESCHTRSNLKALKGRYEMVNIKLDKTGGLTEALALATEARAQGFSLMLGCMLCTSRAISAALPLVPQVSFADLDGPTWLAVDVEPALQFTTGELHL`
11.2

Please supply the value of reported total protein half-life in vivo for the item `MAEIGIFVGTMYGNSLLVAEEAEAILTAQGHKATVFEDPELSDWLPYQDKYVLVVTSTTGQGDLPDSIVPLFQGIKDSLGFQPNLRYGVIALGDSSYVNFCNGGKQFDALLQEQSAQRVGEMLLIDASENPEPETESNPWVEQWGTLLS`
9.75

Note: attention shifts to another entry.
Please supply the value of reported total protein half-life in vivo for the item MIHSSVKRWGNSPAVRIPATLMQALNLNIDDEVKIDLVDGKLIIEPVRKEPVFTLAELVNDITPENLHENIDWGEPKDKEVW [P0AE72]
5.05
